biological target: T1, human CD71 extracellular domain (human, UniProt P02786 89-760); experiment: primary ELISA; signal over HSA control
T1 construct: also called hCD71; CD71-ECD
T1 sequence (P02786 89-760): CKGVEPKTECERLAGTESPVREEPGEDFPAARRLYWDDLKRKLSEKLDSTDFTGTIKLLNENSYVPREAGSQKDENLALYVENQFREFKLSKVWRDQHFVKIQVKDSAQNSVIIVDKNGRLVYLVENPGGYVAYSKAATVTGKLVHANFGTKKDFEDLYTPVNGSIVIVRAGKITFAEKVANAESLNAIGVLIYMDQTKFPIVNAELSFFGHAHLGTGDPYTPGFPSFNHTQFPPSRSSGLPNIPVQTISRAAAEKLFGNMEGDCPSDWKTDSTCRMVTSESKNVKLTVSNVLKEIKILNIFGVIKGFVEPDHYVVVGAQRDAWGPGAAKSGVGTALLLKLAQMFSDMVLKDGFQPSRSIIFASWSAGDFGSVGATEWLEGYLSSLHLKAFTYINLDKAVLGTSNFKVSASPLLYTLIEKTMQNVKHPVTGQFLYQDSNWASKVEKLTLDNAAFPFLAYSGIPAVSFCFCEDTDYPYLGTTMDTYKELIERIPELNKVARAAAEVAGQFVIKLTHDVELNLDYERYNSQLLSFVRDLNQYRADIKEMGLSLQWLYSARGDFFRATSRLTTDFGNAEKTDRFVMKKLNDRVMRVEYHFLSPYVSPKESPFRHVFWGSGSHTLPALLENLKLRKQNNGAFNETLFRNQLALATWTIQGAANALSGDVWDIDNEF
measured-metric: hCD71:HSA (ratio)

CD71-binding FN3 domain SEQ ID NO 388 (designed binder) MLPAPKNLVVSRVTEDSARLSWTAPDAAFDSFEIAYFEYCLNGEAIVLTVPGSERSYDLTGLKPGTEYWVQIGGVKGGTWSWPLSAIFTT : 34

a. CD71-binding FN3 domain SEQ ID NO 403 (designed binder) MLPAPKNLVVSRVTEDSARLSWTAPDAAFDSFYIAYAEPRPDGEAIVLDVPGSERSYDLTGLKPGTEYSVLIHGVKGGLLSSPLVADFTT
b. CD71-binding FN3 domain SEQ ID NO 371 (designed binder) MLPAPKNLVVSRVTEDSARLSWTAPDAAFDSFDIDYVEFGWTGEAIALLVPGSERSYDLTGLKPGTEYWVWIGGVKGGDYSPPLNAYFTT
c. CD71-binding FN3 domain SEQ ID NO 377 (designed binder) MLPAPKNLVVSRVTEDSARLSWTAPDAAFDSFFIGYLEPQPPGEAIQLWVPGSERSYDLTGLKPGTEYNVTIQGVKGGFPSTPLQALFTT
Exam item: Order the records, beginning with the lowest hCD71:HSA and ending with the highest. Thanks in advance for listing the labels in the requested order.
Marked response: b, c, a
